All figures here come from PubChem BioAssay (EPA / NIEHS).

- test-summary: APR_HepG2_StressKinase_72hr: Apredica 72-hour HepG2 Assay for Stress Kinase (AID 2282921)
- condition-set: HepG2 stress kinase (phospho-c-Jun) imaging, actives raise or lower the signal
Activity calls are given as the source filed them. How the source made its calls: active means hit-call score of the fitted dose curve at least 0.9, where 1 is the maximum; inactive means score below 0.9.
Classes used: active, inactive

| molecule | label-value |
| --- | --- |
| O=C(Nc1ccc2[nH]ccc2c1)c1cc2cc(F)ccc2n1Cc1cccc(F)c1 | inactive |
| CCN1CCC2(CC1)COc1cc3c(cc12)N(C(=O)c1ccc(-c2ccc(-c4nnc(C)o4)cc2C)cc1)CC3 | active |
| CCCCCCCCc1ccc(O)cc1 | inactive |
| C=CC(=O)OCCCCCC(C)C | inactive |
| ClCC(Cl)CCl | inactive |
| C[C@@H]1C[C@@H]([C@H](O)CC2CC(=O)NC(=O)C2)C(=O)[C@@H](C)C1 | inactive |
| C=C(C)C(=O)[O][Sn]([CH2]CCC)([CH2]CCC)[CH2]CCC | inactive |
| Oc1cccc2cccnc12 | active |
| ClC1(Cl)C2(Cl)C3(Cl)C4(Cl)C(Cl)(Cl)C5(Cl)C3(Cl)C1(Cl)C5(Cl)C24Cl (stereo not given) | inactive |
| CC(C)(c1ccccc1)c1ccc(O)c(C(C)(C)c2ccccc2)c1 | inactive |
| O=C1C2(Cl)C3(Cl)C4(Cl)C(Cl)(Cl)C5(Cl)C3(Cl)C1(Cl)C5(Cl)C24Cl (stereo not given) | active |
| CC(C)(OO)c1ccccc1 | active |
| Cc1ccccc1N | inactive |
| O=C(O)C(F)(F)C(F)(F)C(F)(F)C(F)(F)C(F)(F)C(F)(F)C(F)(F)C(F)(F)C(F)(F)C(F)(F)F | inactive |
| O=C(O)C(F)(F)C(F)(F)C(F)(F)C(F)(F)C(F)(F)C(F)(F)F | active |

====

- system-name: human Thyroid hormone Receptor beta (TRb), THRB (gene 7068)
- test-summary: ATG_hTRb_XSP2: Attagene TRANS-FACTORIAL Multi-Species (XSP2) HepG2 Assay for human Thyroid hormone Receptor beta (TRb) (AID 2283840);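 further: actives raise reporter mRNA so potency reflects agonist-like gain of signal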
Inconclusive results are not listed. The source made the active and inactive calls. How the source made its calls: active means hit-call score of the fitted dose curve at least 0.9, where 1 is the maximum; inconclusive means response in the unintended direction; inactive means score below 0.9.

| molecule | system-name | AC50 |
| --- | --- | --- |
| O=C1C2(Cl)C3(Cl)C4(Cl)C(Cl)(Cl)C5(Cl)C3(Cl)C1(Cl)C5(Cl)C24Cl (configuration not stated) | human Thyroid hormone Receptor beta (TRb), THRB (gene 7068) | 10 µM (active) |
| Oc1ccc(-c2ccccc2)cc1 | human Thyroid hormone Receptor beta (TRb), THRB (gene 7068) | inactive |
| CC(=O)C=C(C)C | human Thyroid hormone Receptor beta (TRb), THRB (gene 7068) | inactive |
| Clc1ccc(C2(Cn3cncn3)CC(Br)CO2)c(Cl)c1 (configuration not stated) | human Thyroid hormone Receptor beta (TRb), THRB (gene 7068) | inactive |
| CC1(C)CCC(Cc2ccc(Cl)cc2)C1(O)Cn1cncn1 (configuration not stated) | human Thyroid hormone Receptor beta (TRb), THRB (gene 7068) | inactive |
| C[C@]12CC[C@H](O)CC1=CC[C@@H]1[C@@H]2CC[C@]2(C)C(=O)CC[C@@H]12 | human Thyroid hormone Receptor beta (TRb), THRB (gene 7068) | inactive |
| O=S(=O)(c1ccc(Cl)cc1)c1ccc(Cl)cc1 | human Thyroid hormone Receptor beta (TRb), THRB (gene 7068) | 19.8 µM (active) |
